Target: p38a/MK2 (Homo sapiens (Human), UniProt P49137+Q16539)
Sequence (P49137 46-400, one chain of several): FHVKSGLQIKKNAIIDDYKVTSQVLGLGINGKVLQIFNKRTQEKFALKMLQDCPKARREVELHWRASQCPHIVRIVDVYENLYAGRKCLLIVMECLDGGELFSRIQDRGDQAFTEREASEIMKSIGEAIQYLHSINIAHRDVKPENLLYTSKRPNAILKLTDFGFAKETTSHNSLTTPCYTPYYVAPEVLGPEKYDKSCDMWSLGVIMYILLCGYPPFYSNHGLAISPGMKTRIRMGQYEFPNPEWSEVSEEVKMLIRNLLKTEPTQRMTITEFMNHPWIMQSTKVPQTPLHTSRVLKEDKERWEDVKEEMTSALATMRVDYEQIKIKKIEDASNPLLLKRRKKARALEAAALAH
Assay: p38a/MK2 biochemical assay: activation of MK2 by p38, FITC-HSP27 peptide phosphorylation (IMAP FP)
Conditions: 10-point 1:3 dilution, top dose 1 μM; 60 pM active p38a, 1 nM inactive MK2, 10 μM ATP, 2 h incubation; read-out: p38a/MK2 (1 μM) Enzyme pIC50 (converted)
VALUE_TYPE: IC50 (nM)
I only need the number, in nM, no unit after it.

Consider the worked cases shown below.
>>> observed("Cc1cnc(-n2ccc(C(C)(C)CO)n2)cc1-n1c(C)cc(OCc2ncc(F)cc2F)c(Cl)c1=O (single isomer, unassigned) [Example 37A]")
5.01
>>> observed("Cc1cnc(-c2ccnc(C(C)(C)O)c2F)cc1-n1c(C)cc(OCc2ncc(F)cc2F)c(Cl)c1=O (atropisomer, axis not shown) [Example 56A]")
2

### Prompt Note down IC50 recorded for Cc1cnc(-c2ccnc(C(C)(C)O)c2)cc1-n1c(C)cc(OCc2ncc(F)cc2F)c(Cl)c1=O (single isomer, unassigned) [Example 38A]
### Response 100

###

Biological target: p38a/PRAK (Homo sapiens (Human))
Sequence (Q16539 whole entry): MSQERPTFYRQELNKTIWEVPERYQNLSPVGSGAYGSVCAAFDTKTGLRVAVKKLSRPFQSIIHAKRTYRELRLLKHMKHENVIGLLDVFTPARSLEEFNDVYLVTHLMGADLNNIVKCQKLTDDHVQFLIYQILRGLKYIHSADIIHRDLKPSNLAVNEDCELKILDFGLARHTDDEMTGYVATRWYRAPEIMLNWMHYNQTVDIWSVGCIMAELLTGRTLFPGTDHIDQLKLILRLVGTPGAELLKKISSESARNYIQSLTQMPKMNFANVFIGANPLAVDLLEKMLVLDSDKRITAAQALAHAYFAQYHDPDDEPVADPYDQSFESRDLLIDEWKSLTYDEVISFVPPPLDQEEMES
Test: p38a/PRAK biochemical assay: activation of PRAK by p38, FITC-HSP27 peptide phosphorylation (IMAP FP)
Settings: 10-point 1:3 dilution, top dose 300 μM; 60 pM active p38a, 1 nM inactive PRAK, 10 μM ATP, 2 h incubation; read-out: p38a/PRAK Enzyme pIC50 (converted)
VALUE_TYPE: IC50 (µM)
I only need the number, in µM, no unit after it.

Consider the worked cases shown below.
>>> observed("Cc1cnc(-c2ccn(C(C)(C)CO)n2)cc1-n1c(C)cc(OCc2ncc(F)cc2F)c(Cl)c1=O (single isomer, unassigned) [Example 25A]")
3.16
>>> observed("Cc1cnc(-c2ccnc(C(C)(C)O)n2)cc1-n1c(C)cc(COc2ncc(F)cc2F)c(Cl)c1=O (atropisomer, axis not shown)")
158
>>> observed("Cc1cnc(-c2ccnc(C(O)C3CC3)n2)cc1-n1c(C)cc(OCc2ncc(F)cc2F)c(Cl)c1=O (single isomer, unassigned) [Example 35A]")
10

### Prompt Note down IC50 recorded for Cc1cnc(-c2ccnc(C(O)C3CC3)n2)cc1-n1c(C)cc(OCc2ncc(F)cc2F)c(Cl)c1=O (single isomer, unassigned) [Example 35B]
### Response 5.01

### Prompt Note down IC50 recorded for Cc1cnc(-n2ccc(C(C)(C)O)n2)cc1-n1c(C)cc(OCc2ncc(F)cc2Cl)c(Cl)c1=O (single isomer, unassigned) [Example 47A]
### Response 5.01

###

Target: p38a/PRAK (Homo sapiens (Human))
Assay: p38a/PRAK biochemical assay: activation of PRAK by p38, FITC-HSP27 peptide phosphorylation (IMAP FP)
Conditions: 10-point 1:3 dilution, top dose 300 μM; 60 pM active p38a, 1 nM inactive PRAK, 10 μM ATP, 2 h incubation; read-out: p38a/PRAK Enzyme pIC50 (converted)
Description: Expression vectors of the recombinant MK2 and PRAK kinases were constructed by cloning of the codon optimized gene sequences of MK2 (Uniprot ID P49137, amino acid fragment F46-H400), or PRAK (Uniprot ID Q81W41, amino acid fragment M1-Q471) into pGEX-4T1 (GE) for over expression of these kinases with N-terminal GST-tag. […]
Quick reference: IC50 of the listed items.
I only need the number, in µM, no unit after it.

>>> observed("Cc1cnc(-c2nc(C(C)(C)O)ncc2C2CC2)cc1-n1c(C)cc(OCc2ncc(F)cc2F)c(Cl)c1=O (single isomer, unassigned) [Example 31A]")
3.16

### Prompt Note down IC50 recorded for Cc1cnc(-c2ccnc(C(C)(C)O)c2F)cc1-n1c(C)cc(OCc2ncc(F)cc2F)c(Cl)c1=O (atropisomer, axis not shown) [Example 56A]
### Response 1.58

###

Quick reference: IC50 of the listed items.
Target: p38a/MK2 (Homo sapiens (Human), UniProt P49137+Q16539)
Test: p38a/MK2 biochemical assay: activation of MK2 by p38, FITC-HSP27 peptide phosphorylation (IMAP FP)
Conditions: 10-point 1:3 dilution, top dose 1 μM; 60 pM active p38a, 1 nM inactive MK2, 10 μM ATP, 2 h incubation; read-out: p38a/MK2 (1 μM) Enzyme pIC50 (converted)

Consider the worked cases shown below.
>>> observed("Cc1cnc(-c2ccnc(C(C)(C)O)c2)cc1-n1c(C)cc(OCc2ncc(F)cc2F)c(Cl)c1=O (single isomer, unassigned) [Example 38B]")
"> 1000 nM"
>>> observed("Cc1cnc(-c2ccnc([C@@H](O)C3CC3)n2)cc1-n1c(C)cc(OCc2ncc(F)cc2F)c(Cl)c1=O (single isomer, unassigned) [Example 35D]")
"> 1000 nM"

Shifting focus to the compound that follows.
### Prompt Note down IC50 recorded for Cc1cnc(-c2cccc([C@@](C)(O)CO)n2)cc1-n1c(C)cc(OCc2ncc(F)cc2F)c(Cl)c1=O (single isomer, unassigned) [Example 36B]
### Response 6.31 nM

###

Molecular target: p38a/PRAK (Homo sapiens (Human))
Test: p38a/PRAK biochemical assay: activation of PRAK by p38, FITC-HSP27 peptide phosphorylation (IMAP FP)
Settings: 10-point 1:3 dilution, top dose 300 μM; 60 pM active p38a, 1 nM inactive PRAK, 10 μM ATP, 2 h incubation; read-out: p38a/PRAK Enzyme pIC50 (converted)
VALUE_TYPE: IC50 (µM)
I only need the number, in µM, no unit after it.

>>> observed("Cc1sc(-c2ccnc(C(C)(C)O)n2)cc1-n1c(C)cc(OCc2ncc(F)cc2F)c(Cl)c1=O (single isomer, unassigned) [Example 33A]")
5.01
>>> observed("Cc1cnc(-c2cccc([C@H](O)CO)n2)cc1-n1c(C)cc(OCc2ncc(F)cc2F)c(Cl)c1=O (single isomer, unassigned) [Example 34B]")
6.31
>>> observed("Cc1cnc(-c2ccnc(N(C)CCO)n2)cc1-n1c(C)cc(OCc2ncc(F)cc2F)c(Cl)c1=O (single isomer, unassigned) [Example 43A]")
2.51
>>> observed("[2H]C([2H])(Oc1cc(C)n(-c2c(C)cnc(-c3ccnc(CC4(O)CC4)n3)c2F)c(=O)c1Cl)c1ncc(F)cc1F (single isomer, unassigned) [Example 61B]")
0.631
>>> observed("Cc1cnc(-c2ccnc(C(C)(C)O)n2)c(C)c1-n1c(C)cc(OCc2ncc(F)cc2F)c(Cl)c1=O (single isomer, unassigned) [Example 49A]")
3.16

### Prompt Note down IC50 recorded for Cc1cnc(-c2nc(C(C)(C)O)cs2)cc1-n1c(C)cc(OCc2ncc(F)cc2F)c(Cl)c1=O (atropisomer, axis not shown) [Example 2]
### Response 3.98

### Prompt Note down IC50 recorded for [2H]C([2H])(Oc1cc(C)n(-c2c(C)cnc(-c3ccnc(C(C)(C)CO)n3)c2F)c(=O)c1Cl)c1ncc(F)cc1F (single isomer, unassigned) [Example 59B]
### Response 0.316

### Prompt Note down IC50 recorded for Cc1cnc(-c2ccc3c(n2)[C@H](O)CC3)cc1-n1c(C)cc(OCc2ncc(F)cc2F)c(Cl)c1=O (single isomer, unassigned) [Example 18D]
### Response 3.16

###

Quick reference: IC50 of the listed items.
Molecular target: p38a/MK2 (Homo sapiens (Human), UniProt P49137+Q16539)
Experiment: p38a/MK2 biochemical assay: activation of MK2 by p38, FITC-HSP27 peptide phosphorylation (IMAP FP)
Details: 10-point 1:3 dilution, top dose 10 μM; 60 pM active p38a, 1 nM inactive MK2, 10 μM ATP, 2 h incubation; read-out: p38a/MK2 (10 μM) Enzyme pIC50 (converted)

>>> observed("Cc1cnc(-c2ccnc(C(C)(C)C(F)F)n2)cc1-n1c(C)cc(OCc2ncc(F)cc2F)c(Cl)c1=O (single isomer, unassigned) [Example 5B]")
"2 µM"
>>> observed("Cc1cnc(-c2ccc3c(n2)[C@@H](O)CC3)cc1-n1c(C)cc(OCc2ncc(F)cc2F)c(Cl)c1=O (single isomer, unassigned) [Example 18B]")
"> 10 µM"

Shifting focus to the molecule that follows.
### Prompt Note down IC50 recorded for Cc1cnc(-c2ccnc([C@@](C)(O)C3CC3)n2)cc1-n1c(C)cc(OCc2ncc(F)cc2F)c(Cl)c1=O (single isomer, unassigned) [Example 6A]
### Response 0.0251 µM

###

Quick reference: IC50 of the listed items.
Molecular target: p38a/MK2 (Homo sapiens (Human), UniProt P49137+Q16539)
Test: p38a/MK2 biochemical assay: activation of MK2 by p38, FITC-HSP27 peptide phosphorylation (IMAP FP)
Settings: 10-point 1:3 dilution, top dose 1 μM; 60 pM active p38a, 1 nM inactive MK2, 10 μM ATP, 2 h incubation; read-out: p38a/MK2 (1 μM) Enzyme pIC50 (converted)
I only need the number, in nM, no unit after it.

>>> observed("Cc1cnc(-n2ccc(C(C)(C)O)n2)c(F)c1-n1c(C)cc(OCc2ncc(F)cc2F)c(Cl)c1=O (single isomer, unassigned) [Example 54B]")
0.631
>>> observed("Cc1cnc(-c2cccc([C@@H](O)CO)n2)cc1-n1c(C)cc(OCc2ncc(F)cc2F)c(Cl)c1=O (single isomer, unassigned) [Example 34A]")
20

Shifting focus to the molecule that follows.
### Prompt Note down IC50 recorded for Cc1cnc(-c2ccnc(C3(O)CCC3)n2)cc1-n1c(C)cc(OCc2ncc(F)cc2F)c(Cl)c1=O (single isomer, unassigned) [Example 41A]
### Response 5.01

Origin of values: patent US11680056B2
